Assignment: determine reported pIC50 for the given compounds.
test system: MET-amplified gastric cancer cell line GTL-16; experiment: GTL-16 proliferation assay (MTS); type: cell-based; settings: Homo sapiens, GTL-16 cells, 72 h incubation
Numbers only, as −log10 of the molar value.

Fc1cc2ncccc2c(F)c1Cc1cnc2ccc(N3CCNCC3)nn12 [Example 32]	7.60
CC(c1c(F)cc2ncccc2c1F)c1cnc2ccc(N3CCN(C)C(=O)C3)nn12 (racemic) [Example 1]	8.04
C[C@@H](c1c(F)cc2ncccc2c1F)c1cnc2ccc(N3CCN(C=O)CC3)nn12 [Example 13]	8.04

Turning now to a further compound:
### Prompt Quick check: pIC50 of CN1CCN(c2ccc3ncc(Cc4c(F)cc5ncccc5c4F)n3n2)CC1 [Example 33] ?
### Response 7.34

* * *

This section lists IC50 readings for c-Met receptor tyrosine kinase, GST-c-Met(969-1390) (Homo sapiens).
Answers are plain numbers, in nM.

CC(c1c(F)cc2ncccc2c1F)c1cnc2ccc(N3CCN(C)C(=O)C3C)nn12 (racemic)	19
CC1CN(c2ccc3ncc(C(C)c4c(F)cc5ncccc5c4F)n3n2)CC(=O)N1 (racemic)	4
CC(c1c(F)cc2c(cnn2C(C)C)c1F)c1cnc2ccc(N3CCNC(=O)C3)nn12 (racemic)	17

### Prompt Quick check: IC50 of CC(=O)N1CCN(c2ccc3ncc(Cc4cc5cccnc5cc4F)n3n2)CC1 ?
### Response 84
